The reported numbers originate from PubChem BioAssay (Tox21).

Biological target: Glucocorticoid receptor (Homo sapiens) (UniProt P04150)
Sequence (P04150 whole entry, looked up): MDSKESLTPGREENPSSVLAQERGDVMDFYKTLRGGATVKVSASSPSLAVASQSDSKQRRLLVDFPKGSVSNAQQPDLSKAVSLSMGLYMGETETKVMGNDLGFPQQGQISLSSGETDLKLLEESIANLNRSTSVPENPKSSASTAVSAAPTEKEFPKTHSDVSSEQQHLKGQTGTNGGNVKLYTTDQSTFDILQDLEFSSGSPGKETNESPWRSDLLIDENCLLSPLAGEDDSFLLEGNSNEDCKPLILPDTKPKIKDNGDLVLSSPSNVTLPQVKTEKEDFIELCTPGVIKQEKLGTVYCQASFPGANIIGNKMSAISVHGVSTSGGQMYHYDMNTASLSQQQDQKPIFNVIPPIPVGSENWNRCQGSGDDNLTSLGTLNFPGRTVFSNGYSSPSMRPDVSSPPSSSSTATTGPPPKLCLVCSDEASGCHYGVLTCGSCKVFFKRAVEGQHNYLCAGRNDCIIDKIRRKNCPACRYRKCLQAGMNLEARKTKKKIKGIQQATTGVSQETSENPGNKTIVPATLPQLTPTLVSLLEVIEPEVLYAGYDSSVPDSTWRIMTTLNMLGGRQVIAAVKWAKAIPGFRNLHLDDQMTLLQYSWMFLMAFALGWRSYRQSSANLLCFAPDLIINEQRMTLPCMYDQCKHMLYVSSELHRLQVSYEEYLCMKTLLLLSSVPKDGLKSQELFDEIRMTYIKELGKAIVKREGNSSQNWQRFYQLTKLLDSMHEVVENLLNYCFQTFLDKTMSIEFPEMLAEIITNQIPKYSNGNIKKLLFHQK
Assay: qHTS assay to identify small molecule agonists of the glucocorticoid receptor (GR) signaling pathway (AID 720691); on activation: on the % scale 0 is the no-effect control and ±100 the full control effect
Details: GR-bla HeLa, beta-lactamase reporter ratio, 18 h
The source made the active and inactive calls. The call rests on the fitted dose curve; in most records, active means well fitted activation curve with a large enough effect in the signal ratio in the repeat runs (not every such curve was filed as active); inconclusive means weak or mixed curves, or effect the other way; inactive means no such curve, though single readings can be large or run the other way; the % refers to the signal ratio. Positions of bridges follow the written chain, without caps; N, C: chain ends. Non-standard residues stand in square brackets, D forms with d. Residues, ends and D or L forms follow the SMILES beside them. *: point of attachment. X2 = CC[C@H](C)CCCCC(=O)*; Dab = NCC[C@H](N)C(=O)O
Outcomes: 1.0 = active, 0.0 = inactive

Compound	Label class
C[C@@H]1C[C@H]2C3C[C@H](F)C4=CC(=O)C=CC4(C)[C@@]3(F)[C@@H](O)CC2(C)[C@@]1(O)C(=O)COC(=O)C(C)(C)C (some centres not stated)	1.0
FC(F)(F)C(F)(F)C(F)(F)C(F)(F)C(F)(F)C(F)(F)F	0.0
COC(=O)CC[C@H](N)C(=O)O	0.0
CC(=O)N[C@@H]([C@@H](O)[C@H](O)[C@H](O)CO)[C@@H](O)CC(=O)C(=O)O	0.0
CCN(CC)CCOc1ccc(-c2nc3cc(Cl)ccc3s2)cc1	0.0
O=C1CCC(=O)N1CO	0.0
CN[C@H]1CCc2cc(OC)c(OC)c(OC)c2-c2ccc(OC)c(=O)cc21	0.0
O=C(O)c1cc2ccccc2c(Cc2c(O)c(C(=O)O)cc3ccccc23)c1O	0.0
CC[C@H](C)CCCCC(=O)N[C@@H](CCN)C(=O)N[C@H](C(=O)N[C@@H](CCN)C(=O)N[C@H]1CCNC(=O)[C@H]([C@@H](C)O)NC(=O)[C@H](CCN)NC(=O)[C@H](CCN)NC(=O)[C@H](CC(C)C)NC(=O)[C@@H](CC(C)C)NC(=O)[C@H](CCN)NC1=O)[C@@H](C)O (X2-[Dab]T[Dab][Dab][Dab][dL]L[Dab][Dab]T; lactam 4-C)	0.0
NC(=O)C[C@@H](N)C(=O)O	0.0
N[C@@H](C(=O)N[C@@H]1C(=O)N2C(C(=O)O)=C(Cl)CC[C@H]12)c1ccccc1	1.0
C[C@H](CSC(=O)c1ccccc1)C(=O)N1C[C@@H](Sc2ccccc2)C[C@H]1C(=O)O	0.0
CCc1ccc2c(c1)N(CC(C)CN(C)C)c1ccccc1S2 (configuration not stated)	0.0
CCCC(=O)O[C@]1(C(=O)COC(C)=O)CC[C@H]2[C@@H]3C[C@H](F)C4=CC(=O)C=C[C@]4(C)[C@@]3(F)[C@@H](O)C[C@@]21C	1.0
C[C@@H](O)[C@H]1C(=O)N2C(C(=O)[O-])=C(SC3Cn4cnc[n+]4C3)[C@H](C)[C@H]12 (some centres not stated)	0.0
CC(=O)OCC(=O)[C@@]12OC3(CCCC3)O[C@@H]1C[C@H]1[C@@H]3CCC4=CC(=O)C=C[C@]4(C)[C@@]3(F)[C@@H](O)C[C@@]12C	1.0
CO/N=C(\C(=O)N[C@@H]1C(=O)N2C(C(=O)OCOC(=O)C(C)(C)C)=C(/C=C\c3scnc3C)CS[C@H]12)c1csc(N)n1	0.0
CC(=O)N=c1sc(S(N)(=O)=O)nn1C	0.0
CO[C@@]1(NC(=O)C2SC(=C(C(N)=O)C(=O)O)S2)C(=O)N2C(C(=O)O)=C(CSc3nnnn3C)CS[C@@H]21 (some centres not stated)	0.0
CS(=O)(=O)c1ccc(C2=C(c3ccccc3)C(=O)OC2)cc1	0.0
OCCO[C@@H]1[C@@H](O)[C@H](O)[C@@H](CO)O[C@@H]1O	1.0
CCNC(=O)[C@@H]1CCCN1C(=O)[C@H](CCCN=C(N)N)NC(=O)[C@H](CC(C)C)NC(=O)[C@@H](CC(C)C)NC(=O)[C@H](Cc1ccc(O)cc1)NC(=O)[C@H](CO)NC(=O)[C@H](Cc1c[nH]c2ccccc12)NC(=O)[C@H](Cc1cnc[nH]1)NC(=O)[C@@H]1CCC(=O)N1	0.0
